- Test protocol: Cmax in Sprague-Dawley rat at 5 mg/kg, iv by HPLC/MS analysis
- Type: ADME, organism-based
- Parameters: dose 5 mg/kg, route intravenous
- Run conditions: in vivo
Readout label: Cmax (ng/mL)
Give the value in ng/mL but do not write ng/mL after it.

CN1CCN(Cc2cc(NC(=O)c3cccc(C#Cc4cnc5ccnn5c4)c3)cc(C(F)(F)F)c2)CC1
1240

Input: // Cmax lookup, key: CCc1ccc(C(=O)Nc2cc(CN3CCN(C)CC3)cc(C(F)(F)F)c2)cc1C#Cc1cnc2ccnn2c1
Output: 1120

====

- Test protocol: Tmax in Sprague-Dawley rat at 5 mg/kg, iv by HPLC/MS analysis
- Format: ADME, organism-based
- Set-up: dose 5 mg/kg, route intravenous
- Run conditions: in vivo
Measured Tmax accompanies every entry in the list below.
Give the value in min but do not write min after it.

CN1CCN(Cc2cc(NC(=O)c3cccc(C#Cc4cnc5ccnn5c4)c3)cc(C(F)(F)F)c2)CC1
1.98

# next compound below
Input: // Tmax lookup, key: CCc1ccc(C(=O)Nc2cc(CN3CCN(C)CC3)cc(C(F)(F)F)c2)cc1C#Cc1cnc2ccnn2c1
Output: 1.98
